pIC50 values for Tyrosine-protein kinase FRK (Homo sapiens, UniProt P42685) compiled from several publications are listed below.
pIC50: −log10 of the molar value.
measured endpoint: pIC50

# annotated cases, reported pIC50 shown
CC(C)C(=O)N1CCO[C@@H](c2nc(-c3ccc(C(=O)Nc4cc(C(F)(F)F)ccn4)cc3F)c3c(N)nccn23)C1	6.15
COc1cc(C(=O)Nc2cc(C(F)(F)F)ccn2)ccc1-c1nc([C@@H]2CC[C@H]3CCC(=O)N3C2)n2ccnc(N)c12	6.81
Nc1nccn2c([C@@H]3CCCN(C4CCOCC4)C3)nc(-c3ccc(C(=O)Nc4cc(C(F)(F)F)ccn4)cc3F)c12	7.07
Nc1nccn2c([C@H]3CN(C4CCOCC4)CCO3)nc(-c3ccc(C(=O)Nc4cc(C(F)(F)F)ccn4)cc3F)c12	6.88
COCC(=O)N1CCC[C@@H](c2nc(-c3ccc(C(=O)Nc4cc(C(F)(F)F)ccn4)cc3F)c3c(N)nccn23)C1	6.82

I. Cc1ccccc1Nc1nc2cc(F)c(N(C)C(=O)/C=C/CN(C)C)cc2n2cncc12
II. Nc1nccn2c([C@@H]3CC[C@H]4CCC(=O)N4C3)nc(-c3ccc(C(=O)Nc4cc(C(F)(F)F)ccn4)cc3)c12
Exam item: // select label with min value of measured pIC50 from [ I , II ] Indicate which entry you chose by stating its label.
Marked response: I

----------
IC50 values for Tyrosine-protein kinase FRK (Homo sapiens, UniProt P42685) compiled from several publications are listed below.
measured endpoint: IC50 (µM)

CC1(C(=O)N2CCC[C@@H](c3nc(-c4ccc(C(=O)Nc5cc(C(F)(F)F)ccn5)cc4F)c4c(N)nccn34)C2)COC1	0.187

1. Cc1cc(NC(=O)Nc2cc(C(C)(C)C)nn2-c2ccc(Cl)cc2)ccc1Nc1ncnc2c1OC(C)(C)C(=O)N2
2. COCC(=O)N1CCO[C@@H](c2nc(-c3ccc(C(=O)Nc4cc(C(F)(F)F)ccn4)cc3F)c3c(N)nccn23)C1
Exam item: Between the two listed entries 1 and 2 , which has its IC50 at the higher number? Indicate which entry you chose by stating its label.
Marked response: 2
